- ASSAY TARGET: FAAH (Homo sapiens, UniProt O00519)
- Sequence (O00519 1-579): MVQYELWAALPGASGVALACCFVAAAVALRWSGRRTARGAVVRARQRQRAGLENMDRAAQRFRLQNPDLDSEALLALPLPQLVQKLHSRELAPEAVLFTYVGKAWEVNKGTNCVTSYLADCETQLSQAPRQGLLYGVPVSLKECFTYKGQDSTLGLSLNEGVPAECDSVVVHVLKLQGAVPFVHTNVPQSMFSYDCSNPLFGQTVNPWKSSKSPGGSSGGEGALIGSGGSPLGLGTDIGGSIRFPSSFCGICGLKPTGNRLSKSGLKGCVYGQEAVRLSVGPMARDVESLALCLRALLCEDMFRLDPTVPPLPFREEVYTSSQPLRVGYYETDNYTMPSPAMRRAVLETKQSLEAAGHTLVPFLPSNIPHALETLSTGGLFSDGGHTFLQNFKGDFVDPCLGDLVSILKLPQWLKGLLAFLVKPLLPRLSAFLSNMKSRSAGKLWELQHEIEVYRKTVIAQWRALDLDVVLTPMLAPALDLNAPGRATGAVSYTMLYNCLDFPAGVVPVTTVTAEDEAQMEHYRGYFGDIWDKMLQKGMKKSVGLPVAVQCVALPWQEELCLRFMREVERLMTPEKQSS
MEASURED PARAMETER: IC50 (nM)
The reply should be a number in nM, with the unit left off.

Query: Using the record for CC(=O)Nc1ccc(OC(=O)NCC2CCCCC2)cc1 , report its IC50.
Result: 14.6

====

- TEST NAME: Pharmacokinetics in rats following oral administration as a suspension; blood concentrations of compound, acetaminophen and fatty acid ethanolamides
- Type: in vivo
- CONDITION LABEL: rat, plasma, 10 mg/kg oral gavage, suspension
MEASURED PARAMETER: AUC
The reply should read as a number followed by its unit.

Query: Value lookup for AUC; key = CC(=O)Nc1ccc(OC(=O)NCC2CCCCC2)cc1
Result: 6780 ng·h/mL

====

- TEST NAME: Pharmacokinetics in rats following oral administration as a suspension; blood concentrations of compound, acetaminophen and fatty acid ethanolamides
- Format: in vivo
- CONDITION LABEL: rat, plasma, 10 mg/kg oral gavage, suspension
- Procedure: Potential FAAH inhibitors are formulated for oral (p.o.), intraperitoneal (i.p.) or intravenous (i.v.) delivery to rats. Formulated compounds are administered and the animals were sacrificed at pre-determined time points post dose. At sacrifice, blood samples are collected into EDTA plasma tubes and whole brains were snap frozen in liquid nitrogen. […] The pharmacokinetic properties of 4-acetamidophenyl cyclohexylnethylcarbamate were assessed in rats following oral administration as a suspension. […]
MEASURED PARAMETER: Cmax
Write the numeric value and follow it with the unit.

Query: Which Cmax is listed for CC(=O)Nc1ccc(OC(=O)NCC2CCCCC2)cc1 ?
Result: 7740 ng/mL

====

- TEST NAME: Pharmacokinetics in rats following oral administration as a suspension; blood concentrations of compound, acetaminophen and fatty acid ethanolamides
- Format: in vivo
- CONDITION LABEL: rat, plasma, 10 mg/kg oral gavage, suspension
MEASURED PARAMETER: Tmax (min)
Respond numerically; units are min and should not be typed.

Query: # query: Tmax of entry CC(=O)Nc1ccc(OC(=O)NCC2CCCCC2)cc1
Result: 30
